System: primary hepatocytes isolated from rats
Assay: Cell protective effects against doxorubicin in hepatocytes (WST-1 cell viability)
Type: cell-based
Conditions: Hepatocyte; primary rat hepatocytes pretreated with compound for 30 min, then doxorubicin; viability by WST-1 after 24-48 h
// boundary case: EC50 equal to 600 nM maps to NO; strictly smaller maps to YES

Task: Answer whether the compound OC[C@@H]1CSC(c2cc3cccc(NC4CCCC4)c3[nH]2)=N1 has EC50 strictly less than 600 nM
Result: YES

Task: Answer whether the compound Cc1cc(NC2CCOCC2)c2[nH]c(C3=N[C@H](CC(=O)O)CS3)cc2c1 has EC50 strictly less than 600 nM
Result: YES

Task: Answer whether the compound Cc1cc(NC2CCCC2)c2[nH]c(C3=N[C@@H](CC(=O)O)CO3)cc2c1 has EC50 strictly less than 600 nM
Result: YES

Task: Answer whether the compound O=C(O)C[C@H]1CSC(c2cc3cccc(NCC4CCOCC4)c3[nH]2)=N1 has EC50 strictly less than 600 nM
Result: NO

Task: Answer whether the compound CCOc1cc(NC2CCCC2)c2[nH]c(C3=N[C@@H](CC(=O)OC)CS3)cc2c1 has EC50 strictly less than 600 nM
Result: YES

Task: Answer whether the compound Clc1cc(NC2CCCC2)c2[nH]c(C3=N[C@H](CCCN4CCOCC4)CS3)cc2c1 has EC50 strictly less than 600 nM
Result: YES

====

Recorded measurements of EC50, one per entry
System: primary hepatocytes isolated from rats
Test: Cell protective effects against doxorubicin in hepatocytes (WST-1 cell viability)
Type: cell-based
Settings: Hepatocyte; primary rat hepatocytes pretreated with compound for 30 min, then doxorubicin; viability by WST-1 after 24-48 h

Consider the following illustrative entries.
INSERT INTO results (compound, obsvalue) VALUES
  ('COC(=O)C[C@@H]1CSC(c2cc3cc(CS(C)(=O)=O)cc(NC4CCCC4)c3[nH]2)=N1', '4100 nM'),
  ('OC[C@@H]1CSC(c2cc3cccc(NC4CCOCC4)c3[nH]2)=N1', '600 nM'),
  ('OC[C@@H]1CSC(c2cc3cccc(NC4CCOC4)c3[nH]2)=N1 (some centres unmarked)', '750 nM'),
  ('OC[C@@H]1CSC(c2cc3cc(Oc4cccnc4)cc(NC4CCCC4)c3[nH]2)=N1', '780 nM'),
  ('O=C(O)C[C@@H]1CSC(c2cc3cc(Cl)cc(NC4CCCC4)c3[nH]2)=N1', '300 nM'),
  ('CCOC(=O)CC[C@@H]1CSC(c2cc3cc(F)cc(NC4CCCC4)c3[nH]2)=N1', '< 500 nM');

Task: Which value of EC50 has been reported for COC(=O)C[C@@H]1CSC(c2cc3cc(CN4CCCC4)cc(NC4CCCC4)c3[nH]2)=N1 in the records?
Result: 15600 nM

Task: Which value of EC50 has been reported for O=C(O)C[C@H]1COC(c2cc3cc(Cl)cc(NCC4CCOCC4)c3[nH]2)=N1 in the records?
Result: 960 nM

====

System: primary hepatocytes isolated from rats
Experiment: Cell protective effects against doxorubicin in hepatocytes (WST-1 cell viability)
Format: cell-based
Conditions: Hepatocyte; primary rat hepatocytes pretreated with compound for 30 min, then doxorubicin; viability by WST-1 after 24-48 h
// boundary case: EC50 equal to 300 nM maps to NOT MET; strictly smaller maps to MET

Task: Answer whether the compound CCOP(=O)(CC[C@H]1CSC(c2cc3cc(C)cc(NCC4CCOCC4)c3[nH]2)=N1)OCC [Example 244] has EC50 strictly less than 300 nM
Result: MET

Task: Answer whether the compound O=C(O)C[C@@H]1CSC(c2cc3cc(Oc4ccccc4)cc(NC4CCCC4)c3[nH]2)=N1 [Example 85] has EC50 strictly less than 300 nM
Result: NOT MET

Task: Answer whether the compound N[C@H]1CCN(CC[C@H]2CSC(c3cc4cc(Oc5ccccc5)cc(NC5CCCC5)c4[nH]3)=N2)C1 [Example 238] has EC50 strictly less than 300 nM
Result: NOT MET

Task: Answer whether the compound Cc1cc(NC2CCOCC2)c2[nH]c(C3=N[C@@H](CCN4CCOCC4)CS3)cc2c1 [Example 184] has EC50 strictly less than 300 nM
Result: MET

====

Recorded measurements of EC50, one per entry
Tested on: primary hepatocytes isolated from rats
Test: Cell protective effects against doxorubicin in hepatocytes (WST-1 cell viability)
Format: cell-based
Details: Hepatocyte; primary rat hepatocytes pretreated with compound for 30 min, then doxorubicin; viability by WST-1 after 24-48 h
Please respond with the number in nM and leave the unit unwritten.

Task: Form entry - test system: primary hepatocytes isolated from rats; read-out: EC50; molecule: COC(=O)c1csc(-c2cc3cccc(NC4CCCC4)c3[nH]2)n1 [Example 134]
Result: 510

Task: Form entry - test system: primary hepatocytes isolated from rats; read-out: EC50; molecule: O=C(O)C[C@H]1COC(c2cc3cc(Cl)cc(NC4CCCC4)c3[nH]2)=N1 [Example 121]
Result: 470

====

Test system: primary hepatocytes isolated from rats
Assay: Cell protective effects against doxorubicin in hepatocytes (WST-1 cell viability)
Assay type: cell-based
Details: Hepatocyte; primary rat hepatocytes pretreated with compound for 30 min, then doxorubicin; viability by WST-1 after 24-48 h
Recorded measurements of EC50, one per entry
Please respond with the number in nM and leave the unit unwritten.

INSERT INTO assay_data (compound, property, obsvalue) VALUES
  ('c1cc(NC2CCNCC2)c2[nH]c(C3=NCCS3)cc2c1', 'EC50', 1170),
  ('OCc1csc(-c2cc3cccc(NC4CCCC4)c3[nH]2)n1', 'EC50', 310),
  ('Cc1cc(NCC2CC2)c2[nH]c(C3=N[C@@H](CC(=O)O)CS3)cc2c1', 'EC50', 300),
  ('O=C(O)C[C@H]1CSC(c2cc3cccc(NC4CCCC4)c3[nH]2)=N1', 'EC50', 190),
  ('Cc1cc(NC2CCC2)c2[nH]c(C3=N[C@@H](CC(=O)O)CS3)cc2c1', 'EC50', 350);

Task: Which value of EC50 has been reported for Clc1cc(NC2CCOCC2)c2[nH]c(C3=N[C@@H](CCN4CCN(c5ccccn5)CC4)CS3)cc2c1 in the records?
Result: 1000

Task: Which value of EC50 has been reported for CS(=O)(=O)c1ccc(Oc2cc(NC3CCCC3)c3[nH]c(C4=N[C@H](CC(=O)O)CS4)cc3c2)cc1 in the records?
Result: 28100

====

Test system: primary hepatocytes isolated from rats
Assay: Cell protective effects against doxorubicin in hepatocytes (WST-1 cell viability)
Type: cell-based
Conditions: Hepatocyte; primary rat hepatocytes pretreated with compound for 30 min, then doxorubicin; viability by WST-1 after 24-48 h
pEC50: −log10 of the molar value.
// boundary case: pEC50 equal to 6 maps to F; strictly smaller maps to T

Task: Answer whether the compound O=C(O)C[C@@H]1CSC(c2cc3cc(Br)cc(NC4CCCC4)c3[nH]2)=N1 has pEC50 strictly less than 6
Result: F

Task: Answer whether the compound Cc1cc(NC2CCOC2)c2[nH]c(C3=N[C@@H](CC(=O)O)CS3)cc2c1 (some centres unmarked) has pEC50 strictly less than 6
Result: T

Task: Answer whether the compound Cc1cc(NCC2CCOCC2)c2[nH]c(C3=N[C@@H](CCN4CCCC4C(N)=O)CS3)cc2c1 (some centres unmarked) has pEC50 strictly less than 6
Result: F

Task: Answer whether the compound CC(=O)N1CCN(CC[C@H]2CSC(c3cc4cc(Cl)cc(NC5CCCC5)c4[nH]3)=N2)CC1 has pEC50 strictly less than 6
Result: F

Task: Answer whether the compound Fc1cc(NC2CCCC2)c2[nH]c(C3=N[C@H](CCN4CCOCC4)CS3)cc2c1 has pEC50 strictly less than 6
Result: F

Task: Answer whether the compound N[C@H]1CCN(CC[C@@H]2CSC(c3cc4cc(Cl)cc(NC5CCCC5)c4[nH]3)=N2)C1 has pEC50 strictly less than 6
Result: T

Task: Answer whether the compound CCOc1cc(NC2CCCC2)c2[nH]c(C3=N[C@@H](CC(=O)O)CS3)cc2c1 has pEC50 strictly less than 6
Result: F

Task: Answer whether the compound Clc1cc(NC2CCOCC2)c2[nH]c(C3=N[C@H](CCN4CCNCC4)CS3)cc2c1 has pEC50 strictly less than 6
Result: F

====

Test system: primary hepatocytes isolated from rats
Test: Cell protective effects against doxorubicin in hepatocytes (WST-1 cell viability)
Assay type: cell-based
Conditions: Hepatocyte; primary rat hepatocytes pretreated with compound for 30 min, then doxorubicin; viability by WST-1 after 24-48 h
Procedure: Various endogenous/exogenous attacks on the cells trigger the mechanisms of cell death which is broadly classified into two types, i.e. apoptosis or necrosis. […] The cells were suspended in HepatoZYME media (Gibco BRL), and the number of cells was counted. […] In order to assess the hepatocyte protective effect, above adhered cells were pretreated with the Example compounds for 30 min. […] After 24-48 h, the viability of cells was determined to estimate the hepatocyte protective effects. […]
property: EC50 (nM)
Please respond with the number in nM and leave the unit unwritten.

INSERT INTO results (itemsmiles, property, obsvalue) VALUES
  ('Cc1cc(NCC2CCOCC2)c2[nH]c(C3=N[C@@H](CCN4CCNC(=O)C4)CS3)cc2c1', 'EC50', 200),
  ('c1ccc(Oc2cc(NC3CCCC3)c3[nH]c(C4=N[C@@H](CCN5CCCC5)CS4)cc3c2)cc1', 'EC50', 110);

Task: Which value of EC50 has been reported for CCCOc1cc(NC2CCCC2)c2[nH]c(C3=N[C@H](CC(=O)O)CS3)cc2c1 in the records?
Result: 1600

Taken from patent US8222414B2.
